test system: HaCat; experiment: Cytotoxic Profiling of Annotated Libraries Using Quantitative High-Throughput Screening (AID 1296008); conditions: Five cell lines viability, CellTiter-Glo ATP luminescence, 48-72 h; stronger effect = lower value; also: % is scaled to controls: 0 for no effect and ±100 for the full control effect
Records with an inconclusive call do not appear.
Reported endpoint: max response (%)
Expressed in %, but write only the number.

Some molecules with recorded max response:
Cc1cc(C(=O)N2CCCCc3ccccc32)ccc1CNC(=O)N1CCC[C@H]1C(=O)N(C)C | -11
C=C(C)C(=O)OC1CC2(C)OC(=CC2=O)C(=C)CC2OC(=O)C(COC)C12 (centres undefined) | -21.9

HaCat assay, molecule CC12CCC3c4ccc(O)cc4CCC3C1CC(OC1OC(C(=O)O)C(O)C(O)C1O)C2O (centres undefined) , recorded max response = -15

HaCat assay, molecule CC(/C=C/C1=CC2=CC(=O)C(C)(O)C(O)C2=CO1)=C\C(C)CCO (centres undefined) , recorded max response = -24.3

HaCat assay, molecule `COC(=O)c1cc(OC)c(O[C@@H]2O[C@@H](C)[C@H](O)[C@@H](O)[C@H]2O)c(OC)c1` , recorded max response = -17.1

HaCat assay, molecule C/C=C(/COC(=O)/C(C)=C/C)C(=O)OC(CC)c1ccc(OC)c(OC)c1 (centres undefined) , recorded max response = 3.4

HaCat assay, molecule `O=C(O)c1cn(C2CC2)c2cc(N3C[C@@H]4C[C@H]3CN4)c(F)cc2c1=O` , recorded max response = -12.6

HaCat assay, molecule `O=C1N=C(N2CCOCC2)CN1c1ccc(Cl)cc1` , recorded max response = -30.2

HaCat assay, molecule CC12CCC(C(OC3OC(COC4OCC(O)(CO)C4O)C(O)C(O)C3O)C1)C(C)(C)O2 (centres undefined) , recorded max response = -11.8
